- measurement_notes: Fluorescence of 6-amino-1-naphthalenesulfonamides and substrates
- Type: physicochemical
- measurement_conditions: TBS, pH 7.4, 22°C., 1 μM; relative to ANSNH(i-C4 H9); excitation 352 nm, emission 470 nm
readout_label: Relative Fluorescence

In [3]: df
Out[3]:
      compound_structure_string          readout_label  test_result
0  CNS(=O)(=O)c1cccc2cc(N)ccc12  Relative Fluorescence           92

1 = CC(C)NS(=O)(=O)c1cccc2cc(N)ccc12
2 = CC(C)(C)NS(=O)(=O)c1cccc2cc(N)ccc12
Task item: Which of the two gives a bigger number for Relative Fluorescence: 1 or 2 ? Your choice should be expressed through its label.
Reply: 2
(2: 112, 1: 76)

P = CCCCCNS(=O)(=O)c1cccc2cc(N)ccc12
Q = CCCCNS(=O)(=O)c1cccc2cc(N)ccc12
Task item: Please indicate which entry, P or Q , has the lower recorded Relative Fluorescence value. Your choice should be expressed through its label.
Reply: Q

a = CC(C)CNS(=O)(=O)c1cccc2cc(N)ccc12
b = CN(C)S(=O)(=O)c1cccc2cc(N)ccc12
Task item: Please indicate which entry, a or b , has the lower recorded Relative Fluorescence value. Your choice should be expressed through its label.
Reply: b
(b: 65, a: 100)

1 = Nc1ccc2c(S(=O)(=O)NCc3ccccc3)cccc2c1
2 = Nc1ccc2c(S(=O)(=O)N3CCOCC3)cccc2c1
Task item: Which of the two gives a bigger number for Relative Fluorescence: 1 or 2 ? Your choice should be expressed through its label.
Reply: 1

a = Nc1ccc2c(S(=O)(=O)NC3CCCCC3)cccc2c1
b = Nc1ccc2c(S(=O)(=O)N3CCCCC3)cccc2c1
Task item: Please indicate which entry, a or b , has the lower recorded Relative Fluorescence value. Your choice should be expressed through its label.
Reply: b
(b: 68, a: 101)

* * *

- assayed_system: activated protein C (APC) (Homo sapiens)
- Sequence (P04070 212-461 limits assumed): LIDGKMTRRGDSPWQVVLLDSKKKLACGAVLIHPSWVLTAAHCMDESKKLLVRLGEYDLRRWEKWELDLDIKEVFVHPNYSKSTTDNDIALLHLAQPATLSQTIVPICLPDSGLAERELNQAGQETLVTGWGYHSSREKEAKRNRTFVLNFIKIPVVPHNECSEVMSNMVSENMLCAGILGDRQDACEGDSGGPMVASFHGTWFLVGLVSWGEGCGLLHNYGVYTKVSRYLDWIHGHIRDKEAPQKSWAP
- Sequence (P04070 43-197 limits assumed): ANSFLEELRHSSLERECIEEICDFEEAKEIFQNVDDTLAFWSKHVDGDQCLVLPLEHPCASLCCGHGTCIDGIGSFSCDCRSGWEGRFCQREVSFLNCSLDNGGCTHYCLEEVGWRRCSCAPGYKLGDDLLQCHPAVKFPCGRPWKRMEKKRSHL
- measurement_notes: Fluorogenic enzyme assay (Example 5)
- Format: biochemical
- measurement_conditions: Table 7
readout_label: Km (µM)

Solved entries:
>>> df
                  compound_structure_string  unit_string  test_result
0  Br.CC(C)CNS(=O)(=O)c1cccc2cc(NC(=O)[C@H](CCCNC(=N)N)NC(=O)OCc3ccccc3)ccc12           µM          960
1  Br.CC(C)NS(=O)(=O)c1cccc2cc(NC(=O)[C@H](CCCNC(=N)N)NC(=O)OCc3ccccc3)ccc12           µM          343

P = Br.CCCCCNS(=O)(=O)c1cccc2cc(NC(=O)[C@H](CCCNC(=N)N)NC(=O)OCc3ccccc3)ccc12
Q = Br.N=C(N)NCCC[C@H](NC(=O)OCc1ccccc1)C(=O)Nc1ccc2c(S(=O)(=O)NC3CCCCC3)cccc2c1
R = Br.N=C(N)NCCC[C@H](NC(=O)OCc1ccccc1)C(=O)Nc1ccc2c(S(=O)(=O)NCc3ccccc3)cccc2c1
Task item: Rank ascending by Km. Order the labels as requested and list them.
Reply: R, P, Q
(R: 218 µM, P: 436 µM, Q: 810 µM)

I = Br.CCCNS(=O)(=O)c1cccc2cc(NC(=O)[C@H](CCCNC(=N)N)NC(=O)OCc3ccccc3)ccc12
II = Br.CC(C)(C)NS(=O)(=O)c1cccc2cc(NC(=O)[C@H](CCCNC(=N)N)NC(=O)OCc3ccccc3)ccc12
Task item: Which of the two gives a bigger number for Km: I or II ? Your choice should be expressed through its label.
Reply: II
(II: 738 µM, I: 320 µM)
